# system name: Human recombinant Histone Deacetylase 8 (HDAC8) (Homo sapiens (Human), UniProt Q9BY41)
# Sequence (Q9BY41 whole entry): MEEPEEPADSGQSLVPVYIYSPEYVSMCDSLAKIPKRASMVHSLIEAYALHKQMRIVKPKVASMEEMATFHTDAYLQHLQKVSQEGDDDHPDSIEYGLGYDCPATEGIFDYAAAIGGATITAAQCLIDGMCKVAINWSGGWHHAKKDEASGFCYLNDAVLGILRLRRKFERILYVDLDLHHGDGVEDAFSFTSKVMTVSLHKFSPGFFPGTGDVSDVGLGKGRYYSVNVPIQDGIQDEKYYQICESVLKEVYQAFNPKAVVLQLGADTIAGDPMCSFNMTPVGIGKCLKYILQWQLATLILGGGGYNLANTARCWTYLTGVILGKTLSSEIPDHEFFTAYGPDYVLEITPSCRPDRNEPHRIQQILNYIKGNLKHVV
# method summary: HDAC8 Enzymatic Assay (HDAC-Glo I/II luminescence)
# Format: biochemical
# test context: class symbols, Table 14; read-out: HDAC8 IC50
The following molecules are listed with their measured IC50 values.
endpoint name: IC50

>>> test_value("O=C(NO)C(Cc1ccccc1)n1cc2ccccc2n1 (stereo not drawn)")
"200 to 500 nM"
>>> test_value("O=C(NO)C(Cc1ccccc1)n1nc2ccc(-c3ccncc3)cc2c1C#CC1CC1 (stereo not drawn)")
"50 to 200 nM"
>>> test_value("O=C(NO)C(Cc1ccccc1)n1cc2c(C3CC3)cccc2n1 (stereo not drawn)")
"> 500 nM"
>>> test_value("O=C(NO)C(Cc1ccccc1)n1ncc2ccc(-c3ccccc3)cc21 (stereo not drawn)")
"> 500 nM"
>>> test_value("O=C(NO)C(Cc1ccccc1)n1cc2cccc(CNC3CCOCC3)c2n1 (stereo not drawn)")
"> 500 nM"
>>> test_value("CN1CCN(Cc2cccc3cn(C(Cc4ccccc4)C(=O)NO)nc23)CC1 (stereo not drawn)")
"> 500 nM"
>>> test_value("O=C(NO)C(Cc1ccccc1)n1ncc2cc(-c3ccncc3)cnc21 (stereo not drawn)")
"> 500 nM"
>>> test_value("O=C(NO)C(Cc1ccccc1)c1cnc2cc(-c3cncnc3)ccn12 (stereo not drawn)")
"50 to 200 nM"
>>> test_value("O=C(NO)C(Cc1ccccc1)n1cc2cc(-c3ccncc3)ccc2n1 (stereo not drawn)")
"200 to 500 nM"
>>> test_value("O=C(NCCC1CCOCC1)c1cccc2cn(C(Cc3ccccc3)C(=O)NO)nc12 (stereo not drawn)")
"≤ 50 nM"
>>> test_value("O=C(NO)C(Cc1ccccc1)n1ncc2cnccc21 (stereo not drawn)")
"200 to 500 nM"
>>> test_value("COc1ncc(-c2ccc3nn(C(Cc4ccccc4)C(=O)NO)c(C#CC4CC4)c3c2)cn1 (stereo not drawn)")
"≤ 50 nM"
>>> test_value("NC(=O)c1ccc(-c2ccc3nn(C(Cc4ccccc4)C(=O)NO)c(C#CC4CC4)c3c2)cc1 (stereo not drawn)")
"≤ 50 nM"
>>> test_value("O=C(NO)C(Cc1ccccc1)c1cnc2c(Cl)cccn12 (stereo not drawn)")
"200 to 500 nM"
>>> test_value("O=C(NO)C(Cc1ccccc1)n1cnc2ccccc21 (stereo not drawn)")
"200 to 500 nM"
>>> test_value("CN1CCC(c2ccc3cn(C(Cc4ccccc4)C(=O)NO)nc3c2)CC1 (stereo not drawn)")
"> 500 nM"
>>> test_value("O=C(NO)C(Cc1ccccc1)n1ncc2cc(-c3cccnc3)ccc21 (stereo not drawn)")
"50 to 200 nM"
>>> test_value("Cn1cc(-c2cc3cnn(C(Cc4ccccc4)C(=O)NO)c3cn2)cn1 (stereo not drawn)")
"> 500 nM"
